system: Yap1 mRNA; assay: Dose-dependent inhibition of human Yap1 in A-431 cells (Example 24, 11,000 cells per well, RTS36584, normalized to GAPDH); assay type: cell-based; settings: 0.008 μM, free uptake, 48 hours, RTS36584, normalized to GAPDH
measurement name: Yap1 mRNA, % UTC (% UTC)

INSERT INTO results (substance, recorded_result) VALUES
  ('1197270 (TTAAAGTGTATGTCAG; cEt gapmer with 2''-OMe nucleoside, phosphorothioate, further chemistry not given here) [compound 1197270]', 2),
  ('1198831 (CACTTTTACATTAGGA; chemically modified gapmer, further chemistry not given here) [compound 1198831]', 6),
  ('1198728 (TATTAGAGTATGTGGC; modified gapmer, further chemistry not given here) [compound 1198728]', 4),
  ('1198623 (CTAAGTAAGGTTTCCC; modified gapmer, further chemistry not given here) [compound 1198623]', 5),
  ('1198440 (AAGTGTATGTCAGAAG; cEt, 2''-MOE, 5-methylcytosine, phosphorothioate modifications, further chemistry not given here) [compound 1198440]', 1),
  ('1076453 (GTAATATTGCAATCTG; 3-10-3 cEt gapmer, further chemistry not given here) [compound 1076453]', 1),
  ('958499 (ATTAGAGTATGTGGCA; 3-10-3 cEt gapmer, further chemistry not given here) [compound 958499]', 3),
  ('1198605 (GTAATATTGCAATCTG; modified gapmer, further chemistry not given here) [compound 1198605]', 2),
  ('1198872 (TGTATGTCAGAAGAGT; chemically modified gapmer, further chemistry not given here) [compound 1198872]', 3),
  ('1198439 (AGTGTATGTCAGAAGA; sugar, 5-methylcytosine, phosphorothioate modifications, further chemistry not given here) [compound 1198439]', 1);

====

Test system: Yap1 mRNA
Experiment: Dose-dependent inhibition of human Yap1 in SNU-449 cells (Example 9, RTS36584)
Format: cell-based
Conditions: 2000.00 nM, free uptake, approximately 48 hours
Description: Modified oligonucleotides described in the studies above were tested at various doses in SNU-449 cells. […] After approximately 48 hours, Yap1 mRNA levels were measured as previously described using the Human Yap1 primer-probe set RTS36584. Yap1 mRNA levels were normalized to total RNA content, as measured by RIBOGREEN®. […] IC50s were calculated using a linear regression on a log/linear plot of the data in excel.
Strand notation (5' to 3'): a small letter for the sugar, then the base; units joined by * are phosphorothioate-linked, units joined directly phosphodiester-linked; [ ] holds rarer units or linkages, { } end groups; capitals alone tell only the bases. e = 2'-O-(2-methoxyethyl) (MOE); k = constrained ethyl (cEt); [5mC] = 5-methylcytosine; d = 2'-deoxy (DNA); m = 2'-O-methyl
Listed here: items and their measured % UTC (Yap1 mRNA).
measurement name: % UTC (Yap1 mRNA) (% UTC)

INSERT INTO assay_data (substance, measurement_name, recorded_result) VALUES
  ('1198815 (kT*kA*dG*dA*dG*dT*dA*dT*dG*dT*dG*kG*e[5mC]*kA*eA*kT; antisense) [compound 1198815]', '% UTC (Yap1 mRNA)', 15),
  ('1200820 (kG*kG*kA*dA*dG*mA*dT*d[5mC]*dT*dG*dA*dA*dA*k[5mC]*kT*k[5mC]; antisense) [compound 1200820]', '% UTC (Yap1 mRNA)', 17),
  ('1198356 (kT*kA*kA*dA*dG*dT*dG*dT*dA*dT*dG*dT*k[5mC]*eA*kG*eA; antisense) [compound 1198356]', '% UTC (Yap1 mRNA)', 1);
